Value source: patent US7442529B2

- Subject of test: GST-Abl SH2 (Homo sapiens, UniProt P00519)
- Construct: The SH2 domain was cloned using BamH1 (5′) EcoR1 (3′) sites; made in house; host or cells: E. coli (plasmid received from elsewhere; strain not clearly stated for Abl)
- Sequence (P00519 127-217 limits assumed): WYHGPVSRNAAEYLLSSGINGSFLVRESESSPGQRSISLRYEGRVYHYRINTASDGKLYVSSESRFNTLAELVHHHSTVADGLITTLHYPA
- Assay remarks: Fluorescence titration of peptides with GST-Abl SH2, determination of Kd
- Assay type: binding
- Assay setup: target Abl SH2; 20 μM in PBS buffer, pH 7.5
Measured metric: pKd
Please keep in mind that pKd is minus log10 of the molar concentration; only the number is needed.

Exercise: Which pKd reading was recorded for the substance Ac-Dap(6DMN)-Gln-pTyr-Glu-Asn-Val-Gln-Ser-(CONH2) (SEQ OD NO: 7) [Abl-bp2] ?
Key: 4.92
